Origin of the recorded values: ChEMBL document CHEMBL5576149

assay: Unbound clearance in rat liver microsomes at 0.5 uM incubated upto 45 mins; type: ADME, Microsome; conditions: 0.75 h
Note to self: values exactly at 3000 mL/min/kg are rule met. So CL free at or above 3000 mL/min/kg is rule met, below is rule not met.

Q: Decide: is the reported value of CL free for CN(C)S(=O)(=O)c1ccc(N2CCC2)c(-c2cc3ccccc3[nH]2)c1 equal to or greater than 3000 mL/min/kg?
Ans: rule met

Q: Decide: is the reported value of CL free for CN(C)S(=O)(=O)c1ccc(N2CCCC2)c(-c2cc3ccccc3[nH]2)c1 equal to or greater than 3000 mL/min/kg?
Ans: rule met

Q: Decide: is the reported value of CL free for CN(C)S(=O)(=O)c1ccc(N2CC[C@H](O)C2)c(-c2cc3ccccc3[nH]2)c1 equal to or greater than 3000 mL/min/kg?
Ans: rule met

Q: Decide: is the reported value of CL free for O=C([C@H]1CCN1S(=O)(=O)c1ccc(N2CCC(F)(F)C2)c(-c2cc3ccccc3[nH]2)c1)N1CCOCC1 equal to or greater than 3000 mL/min/kg?
Ans: rule met

Q: Decide: is the reported value of CL free for O=C([C@@H]1CCN1S(=O)(=O)c1ccc(N2CC[C@@H](O)C2)c(-c2cc3ccccc3[nH]2)c1)N1CCOCC1 equal to or greater than 3000 mL/min/kg?
Ans: rule not met

Q: Decide: is the reported value of CL free for O=C([C@@H]1CCN1S(=O)(=O)c1ccc(N2CCC(F)(F)C2)c(-c2cc3ccccc3[nH]2)c1)N1CCOCC1 equal to or greater than 3000 mL/min/kg?
Ans: rule met

Q: Decide: is the reported value of CL free for CN(C)S(=O)(=O)c1ccc(N2CCC(F)(F)C2)c(-c2cc3ccccc3[nH]2)c1 equal to or greater than 3000 mL/min/kg?
Ans: rule met

Q: Decide: is the reported value of CL free for CN(C)S(=O)(=O)c1ccc(N2CC[C@@H](O)C2)c(-c2cc3ccccc3[nH]2)c1 equal to or greater than 3000 mL/min/kg?
Ans: rule not met
